System: SK-OV-3
Run description: Cytotoxicity against human SKOV3 cells assessed as growth inhibition after 48 hrs by MTT assay
Format: functional, cell-based
Particulars: SK-OV-3, 48 h
Property label: IC50

[[record]]
mol = "CC1(C)CC[C@]2(C(=O)NCC(=O)O)CC[C@]3(C)C(=CC[C@@H]4[C@@]5(C)CC=C(B6OC(C)(C)C(C)(C)O6)C(C)(C)[C@@H]5CC[C@]43C)[C@@H]2C1"
test_target = "SK-OV-3"
property_label = "IC50"
result = "15.4 µM"

[[record]]
mol = "COC(=O)[C@]12CCC(C)(C)C[C@H]1[C@H]1C(=O)C[C@@H]3[C@@]4(C)CC=C(B5OC(C)(C)C(C)(C)O5)C(C)(C)[C@@H]4CC[C@@]3(C)[C@]1(C)CC2"
test_target = "SK-OV-3"
property_label = "IC50"
result = "> 50 µM"

[[record]]
mol = "COC(=O)CNC(=O)[C@]12CCC(C)(C)C[C@H]1C1=CC[C@@H]3[C@@]4(C)CC=C(B5OC(C)(C)C(C)(C)O5)C(C)(C)[C@@H]4CC[C@@]3(C)[C@]1(C)CC2"
test_target = "SK-OV-3"
property_label = "IC50"
result = "> 50 µM"


Report IC50 for every entry below.
1. CC1(C)CC[C@]2(C#N)CC[C@]3(C)C(=CC[C@@H]4[C@@]5(C)CC=C(B6OC(C)(C)C(C)(C)O6)C(C)(C)[C@@H]5CC[C@]43C)[C@@H]2C1
2. CC1(C)CC[C@]2(C(N)=O)CC[C@]3(C)C(=CC[C@@H]4[C@@]5(C)CC=C(B6OC(C)(C)C(C)(C)O6)C(C)(C)[C@@H]5CC[C@]43C)[C@@H]2C1

-- reply
> 50 µM
> 50 µM

----------
Test system: SK-OV-3
Run description: Cytotoxicity against human SKOV3 cells assessed as growth inhibition after 48 hrs by MTT assay
Type: functional, cell-based
Particulars: SK-OV-3, 48 h
Property label: IC50

Report IC50 for every entry below.
1. CC1(C)CC[C@]2(C(=O)O)CC[C@]3(C)C(=CC[C@@H]4[C@@]5(C)CC=C(B6OC(C)(C)C(C)(C)O6)C(C)(C)[C@@H]5CC[C@]43C)[C@@H]2C1
2. COC(=O)[C@H](C)NC(=O)[C@]12CCC(C)(C)C[C@H]1C1=CC[C@@H]3[C@@]4(C)CC=C(B5OC(C)(C)C(C)(C)O5)C(C)(C)[C@@H]4CC[C@@]3(C)[C@]1(C)CC2
3. C[C@H](NC(=O)[C@]12CCC(C)(C)C[C@H]1C1=CC[C@@H]3[C@@]4(C)CC=C(B5OC(C)(C)C(C)(C)O5)C(C)(C)[C@@H]4CC[C@@]3(C)[C@]1(C)CC2)C(=O)O
4. COC(=O)[C@]12CCC(C)(C)C[C@H]1[C@H]1/C(=N\O)C[C@@H]3[C@@]4(C)CC=C(B5OC(C)(C)C(C)(C)O5)C(C)(C)[C@@H]4CC[C@@]3(C)[C@]1(C)CC2
5. COC(=O)[C@]12CCC(C)(C)C[C@H]1C1=CC[C@@H]3[C@@]4(C)CC=C(B5OC(C)(C)C(C)(C)O5)C(C)(C)[C@@H]4CC[C@@]3(C)[C@]1(C)CC2
6. COC(=O)[C@]12CCC(C)(C)C[C@H]1[C@H]1C(=O)C=C3[C@@]4(C)CC=C(B5OC(C)(C)C(C)(C)O5)C(C)(C)[C@@H]4CC[C@@]3(C)[C@]1(C)CC2

-- reply
["> 50 µM", "> 50 µM", "31.2 µM", "> 50 µM", "> 50 µM", "> 50 µM"]
